- assayOverview: AUC in rat at 12 mg/kg, po
- Assay type: ADME, organism-based
- Set-up: dose 12 mg/kg, route oral
- measurementContext: plasma
Some compounds, each annotated with its measured AUC.

1) CCN(CC)c1ccc(/C=C/C(=O)c2ccc(OC)c3c2OC(C)(C)C=C3)cc1 : 113 ng·h/mL

Could you now look at the following compound, please?
Fill blank: measured AUC of the compound CCC(=O)Oc1ccc(C(=O)/C=C/c2ccc(N(CC)CC)cc2)c2c1C=CC(C)(C)O2 is ____. 1080 ng·h/mL

---

Reported Cmax values for a set of compounds
- assayOverview: Cmax in rat at 12 mg/kg, po
- Format: ADME, organism-based
- Set-up: dose 12 mg/kg, route oral
- measurementContext: in vivo
Give your result in ng/mL as a bare value.

1. CCC(=O)Oc1ccc(C(=O)/C=C/c2ccc(N(CC)CC)cc2)c2c1C=CC(C)(C)O2 : 341

# input for lookup
Consider the compound CCN(CC)c1ccc(/C=C/C(=O)c2ccc(OC)c3c2OC(C)(C)C=C3)cc1 and give its measured Cmax. 11.7

---

- assayOverview: Half life in rat at 3 mg/kg, iv
- Format: ADME, organism-based
- Parameters: dose 3 mg/kg, route intravenous
- measurementContext: in vivo
readoutName: half-life (h)
Give just the number in h; leave the unit off.

Using the record for CCC(=O)Oc1ccc(C(=O)/C=C/c2ccc(N(CC)CC)cc2)c2c1C=CC(C)(C)O2 , report its half-life. 14.1

---

- assayOverview: Half life in rat at 4 mg/kg, iv
- Format: ADME, organism-based
- Design: dose 4 mg/kg, route intravenous
- measurementContext: in vivo
readoutName: half-life (h)
Your answer should be a plain number; it is taken to be in h.

Any idea what its half-life is? The compound is CCN(CC)c1ccc(/C=C/C(=O)c2ccc(OC)c3c2OC(C)(C)C=C3)cc1 127

---

- assayOverview: Tmax in rat at 3 mg/kg, iv
- Type: ADME, organism-based
- Design: dose 3 mg/kg, route intravenous
- measurementContext: in vivo
readoutName: Tmax (min)
I only need the number, in min, no unit after it.

Given the compound CCC(=O)Oc1ccc(C(=O)/C=C/c2ccc(N(CC)CC)cc2)c2c1C=CC(C)(C)O2 , what is its reported Tmax? 4.98
